# K1 listing for each entry below
# Tested on: Tel22 (DNA, G4) AGGGTTAGGGTTAGGGTTAGGG
# assay-notes: SPR steady state, two-site fit
# settings: 50 mM KCl; 10 mM HEPES, 3 mM EDTA, pH 7.3; site 1 of 2
The reply should be a number in M⁻¹, with the unit left off.

# annotated cases, reported K1 shown
structure-string	target-or-test-system	unit-symbol	K1
CC1(C)C(/C=C/C=C2/N(CCC[N+](C)(C)C)c3ccc(C(=O)O)cc3C2(C)C)=[N+](CCC[N+](C)(C)C)c2ccc(C(=O)O)cc21	Tel22 (DNA, G4) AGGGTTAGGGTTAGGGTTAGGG	M⁻¹	830000
CC1(C)C(/C=C/C=C2/N(CCC[N+](C)(C)C)c3ccc(I)cc3C2(C)C)=[N+](CCC[N+](C)(C)C)c2ccc(I)cc21	Tel22 (DNA, G4) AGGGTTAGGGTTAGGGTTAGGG	M⁻¹	2.1e+06
CC1(C)C(/C=C/C=C2/N(CCC[N+](C)(C)C)c3ccc(S(=O)(=O)O)cc3C2(C)C)=[N+](CCC[N+](C)(C)C)c2ccc(S(=O)(=O)O)cc21	Tel22 (DNA, G4) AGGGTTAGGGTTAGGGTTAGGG	M⁻¹	820000
CC1(C)C(/C=C/C=C2/N(CCC[N+](C)(C)C)c3ccccc3C2(C)C)=[N+](CCC[N+](C)(C)C)c2ccccc21	Tel22 (DNA, G4) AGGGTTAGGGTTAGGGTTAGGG	M⁻¹	390000
CC1(C)C(/C=C/C=C2/N(CCC[N+](C)(C)C)c3ccc(Br)cc3C2(C)C)=[N+](CCC[N+](C)(C)C)c2ccc(Br)cc21	Tel22 (DNA, G4) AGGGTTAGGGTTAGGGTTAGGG	M⁻¹	5.5e+06

Lab request: please report K1 under test system Tel22 (DNA, G4) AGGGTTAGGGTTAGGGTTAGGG for CC1(C)C(/C=C/C=C2/N(CCCc3ccccc3)c3ccccc3C2(C)C)=[N+](CCCc2ccccc2)c2ccccc21
130000

Lab request: please report K1 under test system Tel22 (DNA, G4) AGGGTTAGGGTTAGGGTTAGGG for CC1(C)C(/C=C/C=C2/N(CCC[N+](C)(C)C)c3ccc(F)cc3C2(C)C)=[N+](CCC[N+](C)(C)C)c2ccc(F)cc21
5.9e+06

Lab request: please report K1 under test system Tel22 (DNA, G4) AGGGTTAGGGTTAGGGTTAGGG for CC1(C)C(/C=C/C=C2/N(CCC[N+](C)(C)C)c3ccc(Cl)cc3C2(C)C)=[N+](CCC[N+](C)(C)C)c2ccc(Cl)cc21
2.7e+06
